Recorded values, source the supplement of paper PMC10307832.

# Tested on: NCI-H838
# EXPERIMENT: relative viability (nuclei count vs DMSO), 5 days (fraction); higher = more cells survive
# MEASUREMENT_CONDITIONS: first compound 6.325 µM
Below, each entry is listed with its recorded relative viability.
MEASURE: relative viability

compound="Cc1csc(=NC2CCCCC2)n1/N=C/c1ccc(O)c(O)c1O [MIM1] + NC(=O)Nc1cc(-c2cccc(F)c2)sc1C(=O)N[C@H]1CCCNC1 [AZD7762] (partner 0.2 µM)" obs_value=0.84
compound="Cc1csc(=NC2CCCCC2)n1/N=C/c1ccc(O)c(O)c1O [MIM1] + O=C(CCCCCCC(=O)Nc1ccccc1)NO [Vorinostat] (partner 1 µM)" obs_value=0.413
compound="Cc1csc(=NC2CCCCC2)n1/N=C/c1ccc(O)c(O)c1O [MIM1] + C[C@@H](Oc1cc(-c2cnn(C3CCNCC3)c2)cnc1N)c1c(Cl)ccc(F)c1Cl [Crizotinib] (partner 1 µM)" obs_value=0.688

* * *

Below, each entry is listed with its recorded relative viability.
# Test system: CAL-12T
# EXPERIMENT: relative viability (nuclei count vs DMSO), 5 days (fraction); higher = more cells survive
# MEASUREMENT_CONDITIONS: first compound 0.006325 µM
MEASURE: relative viability

molecule="CCNC(=O)c1noc(-c2cc(C(C)C)c(O)cc2O)c1-c1ccc(CN2CCOCC2)cc1 [Luminespib] + CC(=O)c1c(C)c2cnc(Nc3ccc(N4CCNCC4)cn3)nc2n(C2CCCC2)c1=O [Palbociclib] (partner 0.5 µM)" measure="relative viability" obs_value=0.467
molecule="CCNC(=O)c1noc(-c2cc(C(C)C)c(O)cc2O)c1-c1ccc(CN2CCOCC2)cc1 [Luminespib] + COc1cccc2cc(-c3nc([C@H]4CC[C@H](C(=O)O)CC4)n4ncnc(N)c34)[nH]c12 [OSI-027] (partner 0.5 µM)" measure="relative viability" obs_value=0.63

* * *

# System: NCI-H2347
# EXPERIMENT: relative viability (nuclei count vs DMSO), 5 days (fraction); higher = more cells survive
# MEASUREMENT_CONDITIONS: first compound 0.03162 µM
Below, each entry is listed with its recorded relative viability.
MEASURE: relative viability

molecule="Cc1cn(-c2cc(NC(=O)c3ccc(C)c(Nc4nccc(-c5cccnc5)n4)c3)cc(C(F)(F)F)c2)cn1 [Nilotinib] + CC(=O)c1c(C)c2cnc(Nc3ccc(N4CCNCC4)cn3)nc2n(C2CCCC2)c1=O [Palbociclib] (partner 0.5 µM)" measure="relative viability" obs_value=0.43
molecule="Cc1cn(-c2cc(NC(=O)c3ccc(C)c(Nc4nccc(-c5cccnc5)n4)c3)cc(C(F)(F)F)c2)cn1 [Nilotinib] + Cc1nc(Nc2ncc(C(=O)Nc3c(C)cccc3Cl)s2)cc(N2CCN(CCO)CC2)n1 [Dasatinib] (partner 0.075 µM)" measure="relative viability" obs_value=0.267
molecule="Cc1cn(-c2cc(NC(=O)c3ccc(C)c(Nc4nccc(-c5cccnc5)n4)c3)cc(C(F)(F)F)c2)cn1 [Nilotinib] + O=C(CCCCCCC(=O)Nc1ccccc1)NO [Vorinostat] (partner 1 µM)" measure="relative viability" obs_value=0.495
molecule="Cc1cn(-c2cc(NC(=O)c3ccc(C)c(Nc4nccc(-c5cccnc5)n4)c3)cc(C(F)(F)F)c2)cn1 [Nilotinib] + Cc1nc(NC(=O)N2CCC[C@H]2C(N)=O)sc1-c1ccnc(C(C)(C)C(F)(F)F)c1 [Alpelisib] (partner 2 µM)" measure="relative viability" obs_value=0.981
